# Assay details: Toxicity liver stage against HepG2, at 10uM
# Assay type: cell-based
# Set-up: test concentration 10 uM, cell line HepG2-A16-CD81EGFP
# Settings: human, HepG2-A16-CD81EGFP cells; read-out: INHIBITION
Readout type: cytotoxicity at 10 µM (%)
// return numeric value only (unit: %, not printed)

cytotoxicity at 10 µM reading for Cc1cnn(CC2CCCN2C(=O)c2ccc(OCC3CC3)nc2)c1 (stereo not given) : -9.86

Looking up "CCOc1cc(C)nc(N2CCN(Cc3nccn3C)CC2)n1" , I found its cytotoxicity at 10 µM recorded as -4.04

* * *

A collection of molecules and their measured cytotoxicity at 10 µM
# Assay details: Toxicity liver stage against HepG2, at 10uM
# Format: cell-based
# Design: test concentration 10 uM, cell line HepG2-A16-CD81EGFP
# Settings: human, HepG2-A16-CD81EGFP cells; read-out: INHIBITION
Lab note: write values as number then unit, every time.

Some molecules with recorded cytotoxicity at 10 µM:
{"columns": ["Molecule", "cytotoxicity at 10 µM"],
 "data": [
  ["COCCCNC(=O)C(C)n1nc(-c2ccco2)cc(N)c1=O (configuration not stated)", "0.152%"],
  ["COc1ccccc1C(=O)Nc1c(F)c(C(=O)NCCC(C)C)nn1C", "-11.1%"],
  ["O=C(NCCOC1CCCC1)c1ccc(-c2ccco2)[nH]c1=O", "-20%"],
  ["Cc1cccc(N2CCN(CCNC(=O)C(C)n3cncn3)CC2)c1 (configuration not stated)", "-1.91%"],
  ["CN(Cc1csc(-c2cccs2)n1)Cc1ncccc1C(=O)O", "-11.5%"],
  ["CCc1nc2c(c(N(C)Cc3nncn3CCOC)n1)CCNCC2", "-7.63%"],
  ["Cn1ccnc1C(O)(CCNCc1ccco1)C(F)(F)F (configuration not stated)", "1.66%"],
  ["Cc1cc(C)c2cc(CNCc3ccc(C)o3)c3nn(C)c(=O)n3c2c1", "-1.83%"]
]}

get_value(item= "C[C@H]1C[C@H]2CN(C(=O)CCc3ccccc3)CC[C@H]2O1" , readout=cytotoxicity at 10 µM) returns -75.6%

The measured cytotoxicity at 10 µM associated with "CCNc1nc2cn(-c3ccc(Cl)cc3)c(=O)c-2c[nH]1" reads 7.67%

Recorded cytotoxicity at 10 µM (molecule CC(C(=O)O)N1CC2(CCC1=O)CCN(CCc1ccccc1)CC2 (configuration not stated) ): -0.503%

The molecule listed as "CN(C)CCCNC(=O)c1cc(-c2ccc3c(c2)CCO3)n[nH]1" shows cytotoxicity at 10 µM equal to -12.8%

For record "COc1cc(F)c(NCc2nc3ccccc3n2C)cc1OC" the listed cytotoxicity at 10 µM is 26.5%

cytotoxicity at 10 µM for O=C(CN1CSCC1=O)NCC1CCN(c2ccccc2)C1 (configuration not stated) is 1.19%

# molecule "CC(C)Oc1cc(N2CCC3(CC2)[C@H](O)C[C@@H]3O)nc(N)n1" ; its cytotoxicity at 10 µM = -0.335%

Entry CCC(C)N1CCc2nc(N3CCCC3)nc(NC(C)C)c2C1 (configuration not stated) ; cytotoxicity at 10 µM = 8.53%

Looking up "O=C(c1cc(Cn2ccc3ccccc32)[nH]n1)N1CCOCC1" , I found its cytotoxicity at 10 µM recorded as -1.01%

The measured cytotoxicity at 10 µM associated with "NC(=O)CSCC(=O)NC1(c2cccc(Cl)c2)CC1" reads -16.4%

Record "CCCN(CCOC)C(=O)c1cc(Cn2c(C)nc3ccccc32)[nH]n1" . Reported cytotoxicity at 10 µM: 21.8%

Please fill in: cytotoxicity at 10 µM reported for "COc1ccc(C(=O)N2CCC(Oc3cccc(C)c3)(C(=O)O)CC2)o1" = 9.24%

response.value for CCc1nnsc1C(=O)N1CCCC(n2nc(C)nc2C)C1 (configuration not stated) (field: cytotoxicity at 10 µM) = 4.63%
